Collected pIC50 values appear next to each entry.
target.or.system: human DGAT1 (Homo sapiens)
Sequence (O75907 whole entry): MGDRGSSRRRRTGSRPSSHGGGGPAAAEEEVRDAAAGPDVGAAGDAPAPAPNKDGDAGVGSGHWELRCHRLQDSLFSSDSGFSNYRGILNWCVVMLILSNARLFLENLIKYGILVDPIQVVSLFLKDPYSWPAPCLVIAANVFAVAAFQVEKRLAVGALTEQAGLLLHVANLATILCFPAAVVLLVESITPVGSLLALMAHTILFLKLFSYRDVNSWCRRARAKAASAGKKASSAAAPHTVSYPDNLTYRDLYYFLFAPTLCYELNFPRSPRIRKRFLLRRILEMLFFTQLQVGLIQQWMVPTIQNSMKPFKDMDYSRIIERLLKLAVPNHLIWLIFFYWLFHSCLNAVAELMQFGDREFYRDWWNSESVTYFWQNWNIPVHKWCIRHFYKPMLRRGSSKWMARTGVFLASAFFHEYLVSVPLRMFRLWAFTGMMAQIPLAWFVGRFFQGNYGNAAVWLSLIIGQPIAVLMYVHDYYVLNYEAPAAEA
pIC50: −log10 of the molar value.

molecule	pIC50
Nc1ncnc2c1N=C(c1ccc(Cl)cc1)CO2 [Example 1-3]	< 7.00
CC1(C)Oc2ncnc(N)c2N=C1c1ccc2c(c1)CC(CC(=O)O)C2 (stereo not shown) [Example 2-72]	7.00 to 8.00
CC1(C)Oc2ncnc(N)c2N=C1c1ccc2c(c1)CCC21CCC(CC(=O)O)CC1 (stereo not shown) [Example 10-10]	> 8.00

Please fill in: pIC50 reported for CC1(C)Oc2nc(C(F)(F)F)nc(N)c2N=C1c1ccc([C@H]2CC[C@H](CN3CCOC3=O)CC2)c(Cl)c1 [Example 6-21] = 7.00 to 8.00

Please fill in: pIC50 reported for CC(C(=O)O)C1CCC2(CCc3cc(C4=Nc5c(N)nc(C(F)(F)F)nc5OC4(C)C)ccc32)CC1 (stereo not shown) [Example 10-17] = > 8.00

* * *

Collected melting point values appear next to each entry.

molecule	melting point
CC(=O)NC[C@H]1CC[C@H](c2ccc(C3=Nc4c(N)ncnc4OC3(C)C)cc2)CC1 [Example 2-128]	253 to 254 °C
CC(C)(O)C[C@H]1CC[C@H](c2ccc(C3=Nc4c(N)ncnc4OC3(C)C)cc2)CC1 [Example 2-78]	185 to 187 °C
Cc1nc(N)c2c(n1)OC(C)(C)C(c1ccc([C@H]3CC[C@H](C(=O)NS(C)(=O)=O)CC3)cc1)=N2 [Example 2-256]	172 to 175 °C
CC1(C)Oc2ncnc(N)c2N=C1c1ccc([C@H]2CC[C@H](CC(=O)N3CCC(CCO)CC3)CC2)cc1 [Example 2-96]	112 to 113 °C
Cc1nc(N)c2c(n1)OC(C)(C)C(c1ccc(C3CC(CC(=O)O)C3(C)C)cc1)=N2 (stereo not shown) [Example 2-145]	> 250 °C

Please fill in: melting point reported for Cc1ccc(C2Nc3c(N)ncnc3OC2(C)C)cc1 (stereo not shown) [Example 2-20] = > 230 °C

Please fill in: melting point reported for Nc1ncnc2c1N=C(c1c(F)c(F)c(F)c(F)c1F)CO2 [Example 1-31] = 190 to 192 °C

Please fill in: melting point reported for CC1(C)Oc2ncnc(N)c2N=C1c1ccc([C@H]2CC[C@H](CNS(C)(=O)=O)CC2)cc1 [Example 2-58] = 251 to 252 °C

Please fill in: melting point reported for Cc1nc(N)c2c(n1)OC(C)(C)C(c1ccc([C@H]3CC[C@H](CCC(=O)NC(C)(C)CO)CC3)cc1)=N2 [Example 2-193] = > 240 °C

Please fill in: melting point reported for Nc1ncnc2c1NC(c1ccc(Br)cc1)CO2 (stereo not shown) = > 200 °C

Please fill in: melting point reported for CC(C)(CO)NC(=O)C[C@H]1CC[C@H](c2ccc(C3=Nc4c(N)ncnc4OC3(C)C)cc2)CC1 [Example 2-98] = 131 to 133 °C

* * *

measured.metric: melting point

// known answers, use as guide
compound	melting point
CC1(C)Oc2ncnc(N)c2N=C1c1ccc([C@H]2CC[C@H](CCc3cc(O)[nH]n3)CC2)cc1	> 250 °C
CC1(C)Oc2ncnc(N)c2N=C1c1ccc([C@H]2CC[C@H](C(=O)N3CCC(O)CC3)CC2)cc1	250 to 252 °C

Please fill in: melting point reported for CC1(C)Oc2ncnc(N)c2N=C1c1ccc(OC2CCCCC2)cc1 = 174 to 175 °C

Please fill in: melting point reported for CC1(C)Oc2ncnc(N)c2NC1c1ccc([C@H]2CC[C@H](CCC(=O)O)CC2)cc1 (stereo partly drawn) = > 250 °C

Please fill in: melting point reported for CCNS(=O)(=O)C[C@H]1CC[C@H](c2ccc(C3=Nc4c(N)ncnc4OC3(C)C)cc2)CC1 = 209 to 211 °C

Please fill in: melting point reported for CC1(C)Oc2ncnc(N)c2N=C1c1ccc([C@H]2CC[C@H](CN3CC(=O)NC3=O)CC2)cc1 = 212 to 214 °C

Please fill in: melting point reported for Cc1nc(N)c2c(n1)OC(C)(C)C(c1ccc([C@H]3CC[C@H](CC(=O)Cc4nn[nH]n4)CC3)cc1)=N2 = > 250 °C

Please fill in: melting point reported for CC1(C)Oc2ncnc(N)c2N=C1c1ccc([C@H]2CC[C@H](CCN3CCCC3)CC2)cc1 = 142 to 143 °C

* * *

measured.metric: melting point

// known answers, use as guide
molecule	melting point
CC1(C)Oc2nccc(N)c2N=C1c1ccc([C@H]2CC[C@H](CC(=O)O)CC2)cc1	> 250 °C
CCc1ccc(C2=Nc3c(N)ncnc3OC2(C)C)cc1	135 to 136 °C
CC1(C)Oc2ncnc(N)c2N=C1c1ccc([C@H]2CC[C@H](CCNC(=O)[C@@H]3C[C@@H](O)CN3)CC2)cc1	201 to 203 °C

Please fill in: melting point reported for Cc1ccc(C2=Nc3c(N)ncnc3OC2)cc1 = 217 to 219 °C

Please fill in: melting point reported for Cc1nc(N)c2c(n1)OC(C)(C)C(c1ccc([C@H]3CC[C@H](CC(=O)O)CC3)c(Cl)c1)=N2 = > 230 °C

Please fill in: melting point reported for Cc1nc(N)c2c(n1)OC(C)(C)C(c1ccc([C@H]3CC[C@H](C(=O)N4C[C@@H](O)[C@@H](O)C4)CC3)cc1)=N2 = > 250 °C

Please fill in: melting point reported for Nc1ncnc2c1NC(c1ccc(Cl)c(Cl)c1)CO2 (centres unmarked) = 198 to 200 °C

Please fill in: melting point reported for Cc1nc(N)c2c(n1)OC(C)(C)C(c1ccc([C@H]3CC[C@H](CN4CC(=O)NC4=O)CC3)cc1)=N2 = 148 °C (dec.)

* * *

Collected melting point values appear next to each entry.

Please fill in: melting point reported for Cc1nc(N)c2c(n1)OC(C)(C)C(c1ccc([C@H]3CC[C@H](C(=O)NC(C)(C)CO)CC3)cc1)=N2 = 220 to 225 °C

Please fill in: melting point reported for Cc1nc(N)c2c(n1)OC(C)(C)C(c1ccc([C@H]3CC[C@H](Cc4n[nH]c(=O)[nH]4)CC3)c(Cl)c1)=N2 = > 300 °C

Please fill in: melting point reported for CC1(C)Oc2ncnc(N)c2N=C1c1ccc(-c2ccc(CC(=O)O)cc2)cc1 = > 270 °C

Please fill in: melting point reported for CC1(C)Oc2ncnc(N)c2N=C1c1ccc([C@H]2CC[C@H](CN3CCCCC3)CC2)cc1 = 169 to 171 °C

Please fill in: melting point reported for CC1(C)Oc2ncnc(N)c2N=C1c1ccc([C@H]2CC[C@H](CCN3CCC(Cc4ccccc4)CC3)CC2)cc1 = 190 to 191 °C

Please fill in: melting point reported for CC1(C)Oc2nc(C(F)(F)F)nc(N)c2N=C1c1ccc([C@H]2CC[C@H](CNC(N)=O)CC2)c(Cl)c1 = 147 °C (dec.)

Please fill in: melting point reported for CC1(C)Oc2ncnc(N)c2NC1(C)c1ccc(C2CCCCC2)cc1 (stereo not shown) = 244 to 245 °C

Please fill in: melting point reported for CC(NC(=O)[C@H]1CC[C@H](c2ccc(C3=Nc4c(N)ncnc4OC3(C)C)cc2)CC1)C(=O)O (stereo partly shown) = > 250 °C

* * *

measured.metric: melting point

// known answers, use as guide
molecule	melting point
CCOc1cc(C2=Nc3c(N)nc(C)nc3OC2(C)C)ccc1[C@H]1CC[C@H](CC(=O)O)CC1 [Example 6-8]	224 to 225 °C
Cc1nc(N)c2c(n1)OC(C)(C)C(c1ccc([C@H]3CC[C@H](Cc4noc(=O)[nH]4)CC3)c(F)c1)=N2 [Example 6-11]	> 282 °C
CC1(C)Oc2ncnc(N)c2N=C1c1ccc([C@H]2CC[C@H](Cc3cc(O)[nH]n3)CC2)cc1 [Example 2-59]	> 250 °C
CCOC(=O)C=C1CCC(c2ccc(C3=Nc4c(N)ncnc4OC3(C)C)cc2)CC1 (stereo not drawn) [Example 2-39]	207 to 208 °C
Cc1nc(N)c2c(n1)OC(C)(C)C(c1ccc([C@H]3CC[C@H](CN4CCCC(O)C4=O)CC3)c(Cl)c1)=N2 (stereo partly drawn) [Example 6-19]	225 to 226 °C
CN(CC[C@H]1CC[C@H](c2ccc(C3=Nc4c(N)ncnc4OC3(C)C)cc2)CC1)C(=O)CO [Example 2-104]	186 to 188 °C
Cc1nc(N)c2c(n1)OC(C)(C)C(c1ccc([C@H]3CC[C@H](CSC(C)(C)C(=O)O)CC3)cc1)=N2 [Example 2-260]	235 to 239 °C
CC1(C)Oc2ncnc(N)c2N=C1c1ccc([C@H]2CC[C@H](SCC(=O)O)CC2)cc1 [Example 2-112]	> 250 °C
CC1(C)Oc2ncnc(N)c2N=C1c1ccc([C@H]2CC[C@H](CCC(=O)O)CC2)cc1	> 250 °C
CC1(C)Oc2ncnc(N)c2N=C1c1ccc([C@H]2CC[C@H](CC(N)=O)CC2)cc1	224 to 226 °C

Please fill in: melting point reported for CC1(C)Oc2ncnc(N)c2N=C1c1ccc([C@@H]2CCC[C@H](CC(=O)O)C2)cc1 [Example 2-126] = 234 to 235 °C

Please fill in: melting point reported for CCNC(=O)C=C1CCC(c2ccc(C3=Nc4c(N)ncnc4OC3(C)C)cc2)CC1 (stereo not drawn) [Example 2-47] = 229 to 230 °C
